FYI, the data here is from paper PMC9021956.

# TARGET: HLA-A3001 (Homo sapiens, UniProt P04439, D140H/D185E/E176W/F33S/G80R/H175R/K168Q/R138E/R41S)
# ASSAY_INFO: Peptide competitive binding assay, transfected HMy2.CIR cells, reference ASRELK(FITC)VSY
# STATED_CONDITIONS: read-out: Affinity
# Description: HMy2.CIR cell line was purchased (Zhongqiao xinzhou Biotech, Shanghai) and maintained in complete IMDM medium with 10% FCS and 1% penicillin/streptomycin. […] The plate was centrifuged at 600 rpm for 5 min at room temperature (RT). […] Finally, cells were resuspended with 150 μL PBS and analyzed with flow cytometry. […] Binding affinity of unlabeled peptide with the indicated HLA-A molecule is assessed by IC50.
Residues, ends and D or L forms follow the SMILES beside them.
PARAMETER: IC50

Use the examples below as a reference point.
COMPOUND	RESULT
CC(C)C[C@H](NC(=O)[C@H](Cc1ccc(O)cc1)NC(=O)[C@H](CCC(=O)O)NC(=O)[C@H](CC(C)C)NC(=O)[C@@H](NC(=O)[C@@H](NC(=O)[C@@H](N)CCC(=O)O)[C@@H](C)O)C(C)C)C(=O)N[C@H](C(=O)N[C@@H](CO)C(=O)N[C@H](C(=O)O)C(C)C)C(C)C [Epitope P118] (H-ETVLEYLVSV-OH; N-terminus and C-terminus assumed)	> 15 µM
CC[C@H](C)[C@H](NC(=O)[C@H](CC(C)C)NC(=O)[C@H](CCCCN)NC(=O)[C@H](C)NC(=O)CNC(=O)[C@H](CO)NC(=O)[C@H](CCCNC(=N)N)NC(=O)[C@H](CO)NC(=O)[C@@H](N)CCCNC(=N)N)C(=O)O [Epitope P89] (H-RSRSGAKLI-OH; N-terminus and C-terminus assumed)	< 5 µM

Just so you know, measured IC50 for CC[C@H](C)[C@H](NC(=O)[C@H](CC(N)=O)NC(=O)[C@H](C)NC(=O)CNC(=O)[C@H](CO)NC(=O)[C@H](CCCNC(=N)N)NC(=O)[C@H](CO)NC(=O)[C@@H](N)CCCNC(=N)N)C(=O)N[C@@H](CC(C)C)C(=O)O [Epitope P90] (H-RSRSGANIL-OH; N-terminus and C-terminus assumed) came out at < 5 µM

---

# Tested on: twelve prevalent HLA-A allotypes
# ASSAY_INFO: Peptide competitive binding assay, whole panel
# Set-up: species or system human
# STATED_CONDITIONS: high = IC50<5μM
Residues, ends and D or L forms follow the SMILES beside them.
PARAMETER: number of HLA-A allotypes bound with high affinity

COMPOUND	TARGET	RESULT
CC(C)C[C@H](NC(=O)[C@@H](N)Cc1ccccc1)C(=O)N1CCC[C@H]1C(=O)N[C@@H](CO)C(=O)N[C@@H](CC(=O)O)C(=O)N[C@@H](Cc1ccccc1)C(=O)N[C@@H](Cc1ccccc1)C(=O)N1CCC[C@H]1C(=O)N[C@@H](CO)C(=O)O [Epitope P67] (H-FLPSDFFPS-OH; N-terminus and C-terminus assumed)	twelve prevalent HLA-A allotypes	three
CSCC[C@H](NC(=O)[C@@H](N)CCSC)C(=O)N[C@@H](Cc1c[nH]c2ccccc12)C(=O)N[C@@H](Cc1ccccc1)C(=O)N[C@@H](Cc1c[nH]c2ccccc12)C(=O)NCC(=O)N1CCC[C@H]1C(=O)N[C@@H](CO)C(=O)N[C@@H](CC(C)C)C(=O)O [Epitope P71] (H-MMWFWGPSL-OH; N-terminus and C-terminus assumed)	twelve prevalent HLA-A allotypes	two
